Origin of values: patent US20230295293A1

biological target: T1, human FRγ (Homo sapiens, UniProt P41439); experiment: HTRF antigen (IgG) binding assay; conditions: hybridoma supernatant, 1 nM biotinylated antigen; binder >30% delta F
T1 construct: CD33 signal peptide (N, cleaved yes); made in house
T1 sequence (P41439 with tags, fused parts or gaps): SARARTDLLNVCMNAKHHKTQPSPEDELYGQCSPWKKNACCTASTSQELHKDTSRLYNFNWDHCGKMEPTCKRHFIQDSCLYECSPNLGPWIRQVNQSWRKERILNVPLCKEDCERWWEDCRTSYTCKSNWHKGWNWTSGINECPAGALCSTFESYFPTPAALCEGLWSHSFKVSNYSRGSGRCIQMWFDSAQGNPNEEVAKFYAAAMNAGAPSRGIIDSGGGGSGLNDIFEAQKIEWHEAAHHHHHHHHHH
ATTRIBUTE_MEASURED: HTRF IgG binding assay (% Delta F) Human FRγ
Form entry: value (% Delta F) — number only.

Query :: Return value of HTRF IgG binding assay (% Delta F) Human FRγ for input AB1370095: anti-FRα fully human IgG1 antibody; VH SEQ ID NO: 45, VL SEQ ID NO: 46 (antibody, V domains shown) VH: EVQLVESGGGLVKPGGSLRLSCAASGFTFSSYSMNWVRQAPGKGLEWVSSISSRSSYVYYADSVKGRFTISRDNAKNSLYLQMNSLRAEDTAVYYCARGMTTLTFDYWGQGTLVTVSS VL: DIQMTQSPSSLSASVGDRVTITCRASQGISSFLAWFQQKPGKAPKSLIYAASSLQSGVPSKFSGSGSGTDFTLTISSLQPEDFATYYCQQYNSYPLTFGGGTKVEIK , no commentary.
Result :: −1.17
